// data source = the MegaScale stability set (Tsuboyama et al. 2023)

B1: EHEE_rd4_0086 (parent)
chain: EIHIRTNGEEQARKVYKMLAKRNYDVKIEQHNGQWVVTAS

Variants of: B1
experiment: folding stability dG (cDNA display proteolysis); higher = more stable
condition parameters: PBS, room temperature
The label depends only on folding stability dG: y if it is at least 1 kcal/mol, n if it is smaller.

- variant annotation: "T38H"
  group label: "y"
- variant annotation: "R22M"
  group label: "y"
- variant annotation: "G8N"
  group label: "y"
- variant annotation: "M18N"
  group label: "y"
- variant annotation: "K21N"
  group label: "y"
- variant annotation: "Y24G"
  group label: "n"
- variant annotation: "G8Y"
  group label: "y"
- variant annotation: "N23C"
  group label: "y"
- variant annotation: "N23I"
  group label: "n"
- variant annotation: "S40A"
  group label: "y"
- variant annotation: "E1M"
  group label: "y"
- variant annotation: "G8Q"
  group label: "y"
- variant annotation: "R13V"
  group label: "y"
- variant annotation: "R13D"
  group label: "n"
- variant annotation: "R22Y"
  group label: "y"
- variant annotation: "N32T"
  group label: "n"
- variant annotation: "I2E"
  group label: "n"
- variant annotation: "I4N"
  group label: "n"
- variant annotation: "L19M"
  group label: "y"
- variant annotation: "R22L"
  group label: "y"
- variant annotation: "R13K"
  group label: "y"
- variant annotation: "V15D"
  group label: "n"
- variant annotation: "N7G"
  group label: "y"
- variant annotation: "T6P"
  group label: "n"
- variant annotation: "N23M"
  group label: "y"
- variant annotation: "Q11N"
  group label: "y"
- variant annotation: "H31P"
  group label: "n"
- variant annotation: "G33T"
  group label: "n"
- variant annotation: "R13Y"
  group label: "y"
- variant annotation: "V15Y"
  group label: "y"
- variant annotation: "D25S"
  group label: "y"
- variant annotation: "N23Y"
  group label: "y"
- variant annotation: "Y24R"
  group label: "y"
- variant annotation: "R5H"
  group label: "y"
- variant annotation: "K27L"
  group label: "y"
- variant annotation: "I4H"
  group label: "n"
- variant annotation: "R5P"
  group label: "y"
- variant annotation: "Q11H"
  group label: "y"
- variant annotation: "E10V"
  group label: "y"
- variant annotation: "N7K"
  group label: "y"
- variant annotation: "S40L"
  group label: "y"
- variant annotation: "E29S"
  group label: "y"
- variant annotation: "K14T"
  group label: "y"
- variant annotation: "T38G"
  group label: "n"
- variant annotation: "E1W"
  group label: "y"
- variant annotation: "R5T"
  group label: "y"
- variant annotation: "V37I"
  group label: "y"
- variant annotation: "A39K"
  group label: "n"
- variant annotation: "A12S"
  group label: "n"
- variant annotation: "D25T"
  group label: "y"
- variant annotation: "R13A"
  group label: "y"
- variant annotation: "A39S"
  group label: "y"
- variant annotation: "V26T"
  group label: "n"
- variant annotation: "K27Y"
  group label: "y"
- variant annotation: "E9K"
  group label: "y"
- variant annotation: "I2T"
  group label: "n"
- variant annotation: "Y24N"
  group label: "n"
- variant annotation: "T38K"
  group label: "y"
- variant annotation: "A20D"
  group label: "n"
- variant annotation: "G33M"
  group label: "n"
- variant annotation: "E29N"
  group label: "y"
- variant annotation: "E29R"
  group label: "y"
- variant annotation: "R22G"
  group label: "y"
- variant annotation: "R5E"
  group label: "y"
- variant annotation: "G8M"
  group label: "y"
- variant annotation: "E10G"
  group label: "y"
- variant annotation: "V15T"
  group label: "n"
- variant annotation: "Q30P"
  group label: "n"
- variant annotation: "I28S"
  group label: "n"
- variant annotation: "M18T"
  group label: "y"
- variant annotation: "N23W"
  group label: "y"
- variant annotation: "W35I"
  group label: "n"
- variant annotation: "E9N"
  group label: "n"
- variant annotation: "R5Y"
  group label: "y"
- variant annotation: "G8D"
  group label: "y"
- variant annotation: "N7L"
  group label: "y"
- variant annotation: "T38W"
  group label: "y"
- variant annotation: "E10L"
  group label: "y"
- variant annotation: "D25A"
  group label: "y"
